Reference source: PubChem BioAssay AID1851

Quick reference: activity, negative = inhibition of the listed items.
- System: Cytochrome P450 2C9 (Homo sapiens) (UniProt P11712)
- Sequence (P11712 whole entry, looked up): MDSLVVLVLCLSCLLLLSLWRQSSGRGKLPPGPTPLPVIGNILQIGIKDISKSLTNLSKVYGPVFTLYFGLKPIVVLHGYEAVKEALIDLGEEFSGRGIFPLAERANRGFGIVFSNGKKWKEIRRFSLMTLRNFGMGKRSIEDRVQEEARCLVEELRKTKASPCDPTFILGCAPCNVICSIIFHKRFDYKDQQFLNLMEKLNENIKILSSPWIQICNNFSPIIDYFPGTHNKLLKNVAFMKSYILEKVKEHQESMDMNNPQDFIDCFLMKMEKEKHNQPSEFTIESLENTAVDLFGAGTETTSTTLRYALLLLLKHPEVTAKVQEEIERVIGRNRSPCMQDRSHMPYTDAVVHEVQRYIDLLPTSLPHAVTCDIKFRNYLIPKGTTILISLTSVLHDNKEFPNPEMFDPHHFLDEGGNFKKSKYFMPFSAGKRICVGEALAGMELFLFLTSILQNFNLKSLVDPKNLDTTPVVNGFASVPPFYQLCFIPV
- Assay Info: Cytochrome panel assay with activity outcomes; note: % is set by controls: 0 for no effect and ±100 for the full control effect
- Condition Description: recombinant CYP, pro-luciferin dealkylation, luminescence, p450-cyp2c9; series mostly up to 57.1 µM
Out of some 16,000 compounds screened, about 4,000 (25%) were called active. Not shown: some 26% with an inconclusive outcome. Only a sample is shown.
Measured Parameter: activity, negative = inhibition

INSERT INTO assay_data (compound_structure, measured_parameter, result) VALUES
  ('CC(=O)NCCNc1ncnc2ccc(-c3c(C)noc3C)cc12', 'activity, negative = inhibition', '27.1% [at 2.29 µM] (inactive)'),
  ('[Cu].[O-]/N=C1/C(=[OH+])Nc2ccccc21.[O-]Nc1c(O)[nH]c2ccccc12', 'activity, negative = inhibition', '-2.92% [at 11.4 µM] (inactive)'),
  ('CN1CCN(c2ncncc2-c2ccccc2Cl)CC1', 'activity, negative = inhibition', '-9.71% [at 2.29 µM] (inactive)'),
  ('CC(C)(S)[C@H](N)C(=O)O', 'activity, negative = inhibition', '3.44% [at 11.4 µM] (inactive)'),
  ('CO[C@H]1COC(=O)[C@@H](Cc2ccccc2)NC(=O)[C@@H](C)COC(=O)CCC[C@@H]1C', 'activity, negative = inhibition', '18.6% [at 11.4 µM] (inactive)'),
  ('Cc1ncn(-c2ccccc2O)c1C', 'activity, negative = inhibition', '9.91% [at 11.4 µM] (inactive)'),
  ('O=C(O)c1nn(-c2ccc(Cl)cc2)c2c1C(=O)c1ccccc1C2=O', 'activity, negative = inhibition', '-5.15% [at 11.4 µM] (inactive)'),
  ('N/C(CC/C(N)=N/O)=N\O', 'activity, negative = inhibition', '-8.92% [at 11.4 µM] (inactive)'),
  ('O=C(O)c1ccc(Oc2nc3ccccc3s2)cc1', 'activity, negative = inhibition', '-27% [at 11.4 µM] (inactive)'),
  ('CO[C@@H]1COC(=O)C/C=C\[C@H](C)COC(=O)[C@H](Cc2ccccc2)NC(=O)C/C=C\[C@H]1C', 'activity, negative = inhibition', '-22.5% [at 11.4 µM] (inactive)'),
  ('Clc1cc2c(c(CSC3=NCN(CC4CC4)CN3)c1)OCOC2', 'activity, negative = inhibition', '9.58% [at 11.4 µM] (inactive)');
